# Test System: T1, human PD-L1 protein with histidine tag (ACROBiosystems #PD-1-H5258) (human, UniProt Q9NZQ7 19-238)
# T1 construct: Bought protein; also called His PD-L1; human PD-L1 proteins; not shown: histidine tag
# T1 sequence (Q9NZQ7 19-238 limits assumed): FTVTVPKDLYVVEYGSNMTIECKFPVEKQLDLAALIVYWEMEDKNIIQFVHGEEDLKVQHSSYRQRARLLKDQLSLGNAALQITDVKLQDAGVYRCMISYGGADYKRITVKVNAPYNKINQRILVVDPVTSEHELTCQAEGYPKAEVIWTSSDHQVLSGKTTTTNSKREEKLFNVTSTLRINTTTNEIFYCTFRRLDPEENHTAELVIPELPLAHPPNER
# Method: BLI (Octet Red96e); His-tagged human PD-L1 captured on HIS1K sensor, antibody at 60 nM; 1:1 fit

Binder	Kd (nM)
PR005868 (antibody, human IgG1, V domains shown, The HC entry is used) VH: QVQLVESGGGVVQPGMSLRLSCAASGFTFSSYGMYWVRQAPGKGQEWVAIIWYDGTKKHYADSVKGRFTISRDNSKNTLYLEMNSLRVEDTAVYYCAKNRALFGVIPDASDIRGQGTMVTVSS	1.92
PR002082 (antibody, human IgG1, V domains shown, HCAb; also called PTM variant of PR000960 (N28T, N31S)) VH: QVQLVESGGGVVQPGMSLRLSCAASGFTFSSYGMYWVRQAPGKGQEWVAIIWYDGTKKHYADSVKGRFTISRDNSKNTLYLEMNSLRVEDTAVYYCAKNRAIFGVVPDASDIRGQGTMVTVSS	5.61
PR005869 (antibody, human IgG1, V domains shown, The HC entry is used) VH: QVQLVESGGGVVQPGMSLRLSCAASGFTFSSYGMYWVRQAPGKGQEWVAIIWYDGTKKHYADSVKGRFTISRDNSKNTLYLEMNSLRVEDTAVYYCAKNRALFGVIPDDSDIRGQGTMVTVSS	1.09
PR005263 (antibody, human IgG1, V domains shown, The HC entry is used) VH: QVQLVESGGGVVQPGMSLRLSCAASGFTFSSYGMYWVRQAPGKGQEWVASIRYTGTEKHYADSVKGRFTISRDNSKNTLYLEMNSLRVEDTAVYYCAKNRAIFGVVPDASDIRGQGTMVTVSS	1.94
